- System: A549 NSCLC
- MEASUREMENT DESCRIPTION: NCI tumour cell line growth inhibition, 48 h
MEASUREMENT KIND: TGI

# COMPOUND, EXPERIMENTAL TARGET, OBSERVED
measured = [
    ("COc1cc(-c2nc3ccccc3s2)ccc1NC(=O)COc1ccc(Cl)cc1", "A549 NSCLC", "> 100 µM"),
    ("OCC(O)C(O)C(O)c1nn(-c2ccc(Cl)cc2)c2nc3cc(Cl)c(Cl)cc3nc12 (centres undefined)", "A549 NSCLC", "> 100 µM"),
    ("O=S(=O)(O)c1ccc(N=Nc2c(O)ccc3cc(Br)ccc23)cc1", "A549 NSCLC", "> 100 µM"),
]

Returns the measured TGI for the input compound. Input: C=CC(C1=CC(=O)C(OC)=CC1=O)c1ccccc1 (centres undefined)
> 62 µM

---

Reported TGI values for the following molecules.
- Tested on: UACC-62 melanoma
- MEASUREMENT DESCRIPTION: NCI tumour cell line growth inhibition, 48 h
Output spec: scalar in µM, unitless text.

Worked cases, answers included:
# INPUT SMILES, EXPERIMENTAL TARGET, UNIT ABBREV, TGI
records = [
    ("CC(=O)Oc1ccccc1/C=C/C(=O)/C=C/c1ccccc1OC(C)=O", "UACC-62 melanoma", "µM", 3.48),
    ("c1cc2[nH]ncc2cc1-c1nc2ccc3[nH]ncc3c2c2c1CCCC2", "UACC-62 melanoma", "µM", 3.53),
]

Now turn to the next molecule.
Returns the measured TGI for the input molecule. Input: `CN(C)c1ccc(N=C2C=CC(=[N+](C)C)C=C2)cc1`
34.6

---

- Test system: UO-31 renal
- MEASUREMENT DESCRIPTION: NCI tumour cell line growth inhibition, 48 h
MEASUREMENT KIND: TGI

Worked cases, answers included:
# COMPOUND, TGI
measured = [
    ("CC(=O)Nc1cc(N(CCOS(C)(=O)=O)CCOS(C)(=O)=O)ccc1N=O", "> 100 µM"),
    ("CCc1n[nH]c(=O)n1/N=C/c1ccc(C)cc1", "> 100 µM"),
    ("N#Cc1c(N)[nH]c(=S)c(C#N)c1-c1ccccc1", "> 100 µM"),
    ("CC1SC2=NC3=C(c4ccccc4C3=O)C(c3ccc(Cl)cc3)N2C1=O (stereo unspecified)", "> 100 µM"),
    ("O=C(O)c1ccc(NC(NC(=O)C(C(F)(F)F)C(F)(F)F)(C(F)(F)F)C(F)(F)F)cc1", "> 100 µM"),
]

Now turn to the next compound.
Returns the measured TGI for the input compound. Input: COC(CC1(/C=C/O[Si](C(C)C)(C(C)C)C(C)C)C(=O)N(C)c2ccccc21)OC (stereo unspecified)
> 100 µM

---

- Tested on: IGROV1 ovarian
- MEASUREMENT DESCRIPTION: NCI tumour cell line growth inhibition, 48 h
Reported TGI values for the following compounds.

# COMPOUND, TGI
data = [
    ("CCOC(=O)C(C)NC(=O)C(C)NC(=O)C(C)NC(=O)C(C)NC(=O)C(C)NC(=O)OCc1ccccc1 (stereo unspecified)", "> 100 µM"),
    ("CCCCCCCCCCCCCCCCOCC(Cl)COP(=O)(O)OP(=O)(O)OCC1OC(n2cc(C)c(=O)[nH]c2=O)CC1O (stereo unspecified)", "> 100 µM"),
]

Returns the measured TGI for the input compound. Input: CC(=O)NC(CCC(=O)C=[N+]=N)C(=O)O (stereo unspecified)
> 100 µM

Returns the measured TGI for the input compound. Input: `COc1cccc(/C=N/[N-]C(N)=O)c1[O-].[Ni+2].[OH3+].c1ccc(-c2ccccn2)nc1`
> 100 µM
